# TARGET: T1, mouse Ang2 (construct not stated) (mouse, UniProt O35608 19-496, limits assumed)
# T1 construct: also called mAng2
# T1 sequence (looked up): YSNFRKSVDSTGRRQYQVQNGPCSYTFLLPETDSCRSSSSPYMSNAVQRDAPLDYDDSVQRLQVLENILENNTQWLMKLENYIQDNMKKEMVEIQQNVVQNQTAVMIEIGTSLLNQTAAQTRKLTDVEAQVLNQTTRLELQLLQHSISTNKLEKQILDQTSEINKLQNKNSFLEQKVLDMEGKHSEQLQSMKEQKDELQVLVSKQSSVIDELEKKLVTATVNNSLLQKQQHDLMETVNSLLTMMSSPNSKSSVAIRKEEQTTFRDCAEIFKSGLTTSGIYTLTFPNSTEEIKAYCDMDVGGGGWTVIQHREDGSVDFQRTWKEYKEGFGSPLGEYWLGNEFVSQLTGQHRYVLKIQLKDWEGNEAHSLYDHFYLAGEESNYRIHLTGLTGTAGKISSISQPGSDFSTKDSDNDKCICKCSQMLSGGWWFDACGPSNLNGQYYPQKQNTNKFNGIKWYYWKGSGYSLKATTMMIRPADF
# TEST_SUMMARY: SPR Biacore T200, antibody captured on protein A chip, Ang2 as analyte, 1:1 model
kon values for the binders below.
EXPERIMENTAL_ENDPOINT: kon

BINDER	OBSERVED_VALUE
No. 41 anti-Ang2 antibody (IgG) (antibody, V domains shown, IgG form: VH cloned into Invivogen pfusess-hchg1, VL into Invivogen pfuse2ss-hclk; also called 2B2) VH: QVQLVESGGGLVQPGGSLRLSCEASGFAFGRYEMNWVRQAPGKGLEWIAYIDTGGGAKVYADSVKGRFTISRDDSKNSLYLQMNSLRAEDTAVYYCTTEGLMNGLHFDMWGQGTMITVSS VL: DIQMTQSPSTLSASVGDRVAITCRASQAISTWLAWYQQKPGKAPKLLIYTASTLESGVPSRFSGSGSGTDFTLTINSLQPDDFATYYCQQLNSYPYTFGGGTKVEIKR	289000 M⁻¹ s⁻¹
No. 3 anti-Ang2 antibody (IgG) (antibody, V domains shown, IgG form: VH cloned into Invivogen pfusess-hchg1 (heavy chain constant region), VL into Invivogen pfuse2ss-hclk (light chain constant region); Expressed in Expi293F, purified on Protein A; also called 1D10) VH: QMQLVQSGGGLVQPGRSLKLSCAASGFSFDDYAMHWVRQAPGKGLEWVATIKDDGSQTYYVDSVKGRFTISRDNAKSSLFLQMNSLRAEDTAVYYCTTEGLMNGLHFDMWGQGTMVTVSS VL: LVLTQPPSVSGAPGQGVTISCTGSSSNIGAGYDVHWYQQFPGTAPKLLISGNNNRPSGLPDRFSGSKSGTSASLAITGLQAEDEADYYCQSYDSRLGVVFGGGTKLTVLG	158000 M⁻¹ s⁻¹
No. 8 anti-Ang2 antibody (IgG) (antibody, V domains shown, IgG form: VH cloned into Invivogen pfusess-hchg1, VL into Invivogen pfuse2ss-hclk; also called 3A10) VH: QVQLVESGGGLVKPGGSLRLSCAASGFTFSSYSMNWVRQAPGKGLEWVSSISASDGATYYADSVRGRFTISRDNSRSTLYLQMNSLRAEDTAVYYCAKILAGYSGPMGGMDVWGQGTTVTVSS VL: DIQMTQSPSSLSASVGDRVTITCRASRDISNYLAWYQQKPGKAPKSLIYGASNLQSGVSSQFSGSGSGTDFTLTINSLQPEDSATYYCQQYYSYPLTFGGGTKVDIKR	144000 M⁻¹ s⁻¹
No. 46 anti-Ang2 antibody (IgG) (antibody, V domains shown, IgG form: VH cloned into Invivogen pfusess-hchg1, VL into Invivogen pfuse2ss-hclk; also called 3C6) VH: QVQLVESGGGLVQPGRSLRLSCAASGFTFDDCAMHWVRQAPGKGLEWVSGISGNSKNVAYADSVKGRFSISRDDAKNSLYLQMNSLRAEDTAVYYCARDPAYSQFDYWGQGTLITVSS VL: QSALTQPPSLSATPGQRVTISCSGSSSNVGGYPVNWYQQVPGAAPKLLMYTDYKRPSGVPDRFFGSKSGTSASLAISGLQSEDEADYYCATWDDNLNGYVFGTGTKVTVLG	465000 M⁻¹ s⁻¹
